Listing: TGI of selected compounds
Test system: HL-60(TB) leukemia
Test: NCI tumour cell line growth inhibition, 48 h

Illustrative cases are given below, each with its answer.
CSC1=NS(=O)(=O)c2cc(C(=O)NN(C)C(=O)c3cc4c(cc3Cl)SC(SC)=NS4(=O)=O)c(Cl)cc2S1 | > 10 µM
COc1cc(S(C)(=O)=O)ccc1Nc1nc2ccc(-c3ccc(NC(=O)[C@H](C)c4ccc(F)cc4)cc3)cn2n1 | > 100 µM
COc1ccc(/C=C2\C(=O)N(C(=O)Cc3ccccc3)N=C2C)cc1OC | > 100 µM

So what does the record say about TGI for O=c1[nH]c(=O)n(C2OC3COC2C3O)cc1F (stereo not given) ?
> 100 µM

Entry under review: [N-]=[N+]=Nc1ccc(CNc2cc(=O)[nH]c(=O)[nH]2)cc1 . Reported TGI?
> 100 µM
